biological target: PKBb (Homo sapiens, UniProt P31751); assay: Kinase profiling PKBb; type: biochemical; settings: 100 micromolar inhibitor concentration; 100 is no change
Sequence (P31751 whole entry): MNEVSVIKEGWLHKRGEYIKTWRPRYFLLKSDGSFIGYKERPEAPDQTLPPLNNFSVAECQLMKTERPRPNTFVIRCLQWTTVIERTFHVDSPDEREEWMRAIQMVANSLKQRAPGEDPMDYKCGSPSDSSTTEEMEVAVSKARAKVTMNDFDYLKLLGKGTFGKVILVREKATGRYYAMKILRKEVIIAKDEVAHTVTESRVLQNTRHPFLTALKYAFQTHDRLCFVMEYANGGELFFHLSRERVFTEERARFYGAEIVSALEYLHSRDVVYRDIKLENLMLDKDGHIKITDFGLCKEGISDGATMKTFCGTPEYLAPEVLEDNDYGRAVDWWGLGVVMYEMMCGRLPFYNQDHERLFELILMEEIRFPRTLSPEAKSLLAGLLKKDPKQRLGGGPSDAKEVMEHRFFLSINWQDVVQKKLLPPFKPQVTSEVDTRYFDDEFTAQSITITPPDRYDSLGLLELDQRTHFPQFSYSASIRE
Exercise: for every item that follows, state its recorded residual kinase activity, PKBb.
Give bare numbers.

O=C(Nc1nc2cc(O)ccc2s1)c1cccnc1 [Compound 03-33] = 93
O=C(Nc1nc2cc(O)ccc2s1)c1ccncc1 [Compound 03-11] = 82
O=C(Nc1nc2cc(O)ccc2s1)c1ccccn1 [Compound 03-13] = 60
O=C(Nc1nc2ccc(O)cc2s1)c1cccnc1 [Compound 08-44] = 45
CC(=O)Nc1nc2ccccc2s1 [Compound 03-32] = 112

Then there is this compound:
What value of residual kinase activity, PKBb has been recorded for this entry: CC(=O)Nc1ccccc1C(=O)Nc1nc2ccc(O)cc2s1 [Compound 08-39] 4

====

biological target: CHK1 (Homo sapiens, UniProt O14757); test: Kinase profiling CHK1; type: biochemical; conditions: 100 micromolar inhibitor concentration; 100 is no change
Sequence (O14757 whole entry, species assumed): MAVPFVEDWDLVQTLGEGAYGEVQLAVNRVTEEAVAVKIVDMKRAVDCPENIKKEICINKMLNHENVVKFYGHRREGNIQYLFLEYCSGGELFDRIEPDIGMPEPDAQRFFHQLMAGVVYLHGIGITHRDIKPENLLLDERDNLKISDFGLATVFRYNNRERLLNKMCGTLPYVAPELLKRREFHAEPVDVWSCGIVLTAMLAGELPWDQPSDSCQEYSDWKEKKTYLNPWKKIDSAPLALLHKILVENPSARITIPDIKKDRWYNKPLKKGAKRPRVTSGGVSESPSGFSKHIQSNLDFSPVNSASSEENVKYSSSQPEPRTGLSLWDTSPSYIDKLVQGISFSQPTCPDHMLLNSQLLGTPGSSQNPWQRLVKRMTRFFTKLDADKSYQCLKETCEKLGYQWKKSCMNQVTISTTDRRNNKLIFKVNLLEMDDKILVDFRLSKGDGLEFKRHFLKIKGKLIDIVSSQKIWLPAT
Exercise: for every item that follows, state its recorded residual kinase activity, CHK1.
One number for each entry.

O=C(Nc1nc2cc(O)ccc2s1)c1ccccn1 = 88
O=C(Nc1nc2cc(O)ccc2s1)c1ccncc1 = 78
O=C(Nc1nc2ccc(O)cc2s1)c1ccccn1 = 90
O=C(Nc1nc2ccc(O)cc2s1)c1ccncc1 = 70
O=C(Nc1nc2ccc(O)cc2s1)c1cccnc1 = 78

# return residual kinase activity, CHK1 for each item in the list
1. CC(=O)Nc1nc2ccccc2s1
2. CC(=O)Nc1nc2cc(C)ccc2s1
3. O=C(Nc1nc2cc(O)ccc2s1)c1cccnc1
4. O=C(Nc1nc2ccc(O)cc2s1)c1ccccc1

1. 105
2. 102
3. 106
4. 72

====

target: DAPK1 (Homo sapiens); assay: Kinase profiling DAPK1; format: biochemical; details: 100 micromolar inhibitor concentration; 100 is no change
Exercise: for every item that follows, state its recorded residual kinase activity, DAPK1.
Give bare numbers.

O=C(Nc1nc2ccc(O)cc2s1)c1ccccc1 = 19
O=C(Nc1nc2cc(O)ccc2s1)c1ccncc1 = 62

Then there is this compound:
What value of residual kinase activity, DAPK1 has been recorded for this entry: O=C(Nc1nc2ccc(O)cc2s1)c1ccncc1 32

====

molecular target: EPH-A2 (Homo sapiens, UniProt P29317); test: Kinase profiling EPH-A2; type: biochemical; settings: 100 micromolar inhibitor concentration; 100 is no change; read-out: residual kinase activity, EPH-A2
Sequence (P29317 24-976, species assumed): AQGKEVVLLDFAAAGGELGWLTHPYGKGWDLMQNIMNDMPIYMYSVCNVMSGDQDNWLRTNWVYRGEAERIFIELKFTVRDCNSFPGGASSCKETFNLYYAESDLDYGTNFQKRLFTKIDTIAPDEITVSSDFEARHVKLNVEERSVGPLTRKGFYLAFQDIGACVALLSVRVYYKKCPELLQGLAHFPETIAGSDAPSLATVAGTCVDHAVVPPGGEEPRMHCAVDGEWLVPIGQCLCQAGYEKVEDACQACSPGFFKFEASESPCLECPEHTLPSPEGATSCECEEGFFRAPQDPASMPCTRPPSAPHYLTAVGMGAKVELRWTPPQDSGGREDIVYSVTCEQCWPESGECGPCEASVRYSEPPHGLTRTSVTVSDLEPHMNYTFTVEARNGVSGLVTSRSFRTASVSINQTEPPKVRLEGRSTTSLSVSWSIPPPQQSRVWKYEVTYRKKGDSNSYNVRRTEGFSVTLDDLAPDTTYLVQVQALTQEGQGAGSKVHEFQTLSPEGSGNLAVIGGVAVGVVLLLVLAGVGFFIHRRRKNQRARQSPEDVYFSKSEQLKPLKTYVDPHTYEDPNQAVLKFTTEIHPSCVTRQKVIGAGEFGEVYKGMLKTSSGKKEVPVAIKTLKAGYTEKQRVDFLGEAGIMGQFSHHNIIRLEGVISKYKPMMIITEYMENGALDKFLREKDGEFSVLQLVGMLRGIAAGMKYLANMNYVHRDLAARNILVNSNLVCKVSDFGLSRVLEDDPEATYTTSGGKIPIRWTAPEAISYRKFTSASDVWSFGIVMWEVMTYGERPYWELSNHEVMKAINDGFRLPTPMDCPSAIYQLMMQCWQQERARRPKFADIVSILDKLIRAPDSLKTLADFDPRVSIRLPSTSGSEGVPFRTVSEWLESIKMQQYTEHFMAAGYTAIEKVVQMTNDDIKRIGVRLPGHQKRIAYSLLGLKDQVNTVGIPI
ASSAY_READOUT: remaining activity at 100 µM (%)
One number for each entry, in %.

Examples from the recorded data:
CC(=O)Nc1nc2ccc(C(F)(F)F)cc2s1 = 67
COc1ccc2sc(NC(C)=O)nc2c1 = 89
CC(=O)Nc1nc2cc(C(F)(F)F)ccc2s1 = 99
CC(=O)Nc1nc2ccc([N+](=O)[O-])cc2s1 = 65
CC(=O)Nc1nc2ccc(C#N)cc2s1 = 73
CC(=O)Nc1nc2cc(F)ccc2s1 = 106

Then there is this compound:
What value of remaining activity at 100 µM has been recorded for this entry: CC(=O)Nc1nc2ccc(O)cc2s1 66

====

Biological target: CAMK1 (Homo sapiens, UniProt Q14012)
Sequence (Q14012 whole entry, species assumed): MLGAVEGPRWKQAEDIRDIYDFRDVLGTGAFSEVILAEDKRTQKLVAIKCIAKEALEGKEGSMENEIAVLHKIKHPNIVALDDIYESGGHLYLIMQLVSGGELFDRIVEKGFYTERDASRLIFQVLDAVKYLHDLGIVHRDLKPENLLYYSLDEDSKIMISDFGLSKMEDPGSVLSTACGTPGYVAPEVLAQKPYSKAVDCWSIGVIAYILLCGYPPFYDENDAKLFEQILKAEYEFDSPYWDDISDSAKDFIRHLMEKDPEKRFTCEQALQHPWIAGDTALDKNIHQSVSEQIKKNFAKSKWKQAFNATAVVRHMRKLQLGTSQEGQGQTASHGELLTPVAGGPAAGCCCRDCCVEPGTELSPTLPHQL
Test: Kinase profiling CAMK1
Type: biochemical
Settings: 100 micromolar inhibitor concentration; 100 is no change; read-out: residual kinase activity, CAMK1
Text: Any value less that 25 is considered to be highly significant inhibition.
hey, just use yes if measured remaining activity at 100 µM is less than 80%, otherwise no

CC(=O)Nc1nc2cc(F)ccc2s1 [Compound 03-77] = no
CC(=O)Nc1nc2ccc(C(F)(F)F)cc2s1 [Compound 01-90] = yes
CC(=O)Nc1nc2cc(C(F)(F)F)ccc2s1 [Compound 03-73] = no
CC(=O)Nc1nc2ccc([N+](=O)[O-])cc2s1 [Compound 13-10] = no

Shifting focus to the compound that follows.
Please state whether remaining activity at 100 µM is below 80% for CC(=O)Nc1nc2ccc(O)cc2s1 [Compound 01-71] yes

====

target: Src (Homo sapiens, UniProt P12931); experiment: Kinase profiling Src; format: biochemical; conditions: 100 micromolar inhibitor concentration; 100 is no change
Sequence (P12931 whole entry, species assumed): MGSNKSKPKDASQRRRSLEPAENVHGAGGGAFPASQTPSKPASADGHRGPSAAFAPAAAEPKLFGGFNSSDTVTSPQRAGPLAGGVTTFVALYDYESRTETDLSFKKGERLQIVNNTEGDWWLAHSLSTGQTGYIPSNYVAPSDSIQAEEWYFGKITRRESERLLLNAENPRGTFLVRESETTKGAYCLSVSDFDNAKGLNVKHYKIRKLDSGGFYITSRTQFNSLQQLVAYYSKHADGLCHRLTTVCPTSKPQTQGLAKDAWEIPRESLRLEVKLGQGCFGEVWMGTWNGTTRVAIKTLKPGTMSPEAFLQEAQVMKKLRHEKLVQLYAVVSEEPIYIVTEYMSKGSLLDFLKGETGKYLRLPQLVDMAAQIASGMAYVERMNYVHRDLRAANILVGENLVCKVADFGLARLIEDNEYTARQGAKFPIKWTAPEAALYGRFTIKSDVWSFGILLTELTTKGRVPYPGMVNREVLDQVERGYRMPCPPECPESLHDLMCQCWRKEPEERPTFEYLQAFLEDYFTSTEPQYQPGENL
Label MET when residual kinase activity, Src >= 80; otherwise NOT MET.

The following molecules have reported results that may help.
O=C(Nc1nc2ccc(F)cc2s1)c1ccccc1 = NOT MET
O=C(Nc1nc2ccc(C(F)(F)F)cc2s1)c1ccccc1 = MET
COc1ccc2sc(NC(=O)c3ccccc3)nc2c1 = NOT MET
O=C(Nc1nc2cc(O)ccc2s1)c1cccnc1 = NOT MET
COC(=O)c1cccc(C(=O)Nc2nc3ccc(F)cc3s2)c1 = MET

Check if residual kinase activity, Src >= 80 (inclusive). Item: CC(=O)Nc1nc2ccccc2s1 MET

Check if residual kinase activity, Src >= 80 (inclusive). Item: O=C(Nc1nc2ccc(O)cc2s1)c1cccnc1 NOT MET

Check if residual kinase activity, Src >= 80 (inclusive). Item: CC(=O)Nc1nc2ccc(F)cc2s1 NOT MET

====

Biological target: UniProtKB P33981
Sequence (P33981 1-857): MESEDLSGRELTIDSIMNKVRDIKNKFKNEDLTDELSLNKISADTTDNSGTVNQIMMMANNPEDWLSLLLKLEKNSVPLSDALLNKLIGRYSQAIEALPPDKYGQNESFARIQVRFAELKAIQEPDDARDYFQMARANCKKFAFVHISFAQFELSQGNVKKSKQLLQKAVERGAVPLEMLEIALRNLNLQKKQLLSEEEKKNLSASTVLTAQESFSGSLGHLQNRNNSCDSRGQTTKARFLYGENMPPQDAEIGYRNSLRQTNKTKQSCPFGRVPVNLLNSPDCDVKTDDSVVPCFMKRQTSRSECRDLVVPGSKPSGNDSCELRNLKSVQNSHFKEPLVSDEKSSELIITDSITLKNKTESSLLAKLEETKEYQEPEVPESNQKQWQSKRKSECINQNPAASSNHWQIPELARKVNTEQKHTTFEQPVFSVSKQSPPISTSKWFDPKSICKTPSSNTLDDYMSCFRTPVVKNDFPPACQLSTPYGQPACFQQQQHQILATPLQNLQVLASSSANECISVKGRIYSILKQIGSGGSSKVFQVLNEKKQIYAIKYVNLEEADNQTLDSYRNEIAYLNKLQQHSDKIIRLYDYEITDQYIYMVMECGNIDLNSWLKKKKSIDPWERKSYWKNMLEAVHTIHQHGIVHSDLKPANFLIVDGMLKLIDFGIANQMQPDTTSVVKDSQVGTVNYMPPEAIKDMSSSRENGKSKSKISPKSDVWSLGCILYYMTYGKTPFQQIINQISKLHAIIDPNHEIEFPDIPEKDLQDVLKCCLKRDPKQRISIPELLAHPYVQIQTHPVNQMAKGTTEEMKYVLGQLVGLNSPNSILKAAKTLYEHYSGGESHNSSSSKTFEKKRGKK
Assay: Kinase profiling TTK
Format: biochemical
Conditions: 100 micromolar inhibitor concentration; 100 is no change
Label 1 when residual kinase activity, TTK >= 70; otherwise 0.

Check if residual kinase activity, TTK >= 70 (inclusive). Item: COC(=O)c1cccc(C(=O)Nc2nc3ccc(F)cc3s2)c1 0

Check if residual kinase activity, TTK >= 70 (inclusive). Item: O=C(Nc1nc2ccc(C(F)(F)F)cc2s1)c1ccccc1 0

Check if residual kinase activity, TTK >= 70 (inclusive). Item: O=C(Nc1nc2ccc(O)cc2s1)c1ccccn1 0

Check if residual kinase activity, TTK >= 70 (inclusive). Item: COc1ccc2sc(NC(=O)c3cccc(C(N)=O)c3)nc2c1 1

====

Target: DAPK1 (Homo sapiens, UniProt P53355)
Sequence (P53355 whole entry, species assumed): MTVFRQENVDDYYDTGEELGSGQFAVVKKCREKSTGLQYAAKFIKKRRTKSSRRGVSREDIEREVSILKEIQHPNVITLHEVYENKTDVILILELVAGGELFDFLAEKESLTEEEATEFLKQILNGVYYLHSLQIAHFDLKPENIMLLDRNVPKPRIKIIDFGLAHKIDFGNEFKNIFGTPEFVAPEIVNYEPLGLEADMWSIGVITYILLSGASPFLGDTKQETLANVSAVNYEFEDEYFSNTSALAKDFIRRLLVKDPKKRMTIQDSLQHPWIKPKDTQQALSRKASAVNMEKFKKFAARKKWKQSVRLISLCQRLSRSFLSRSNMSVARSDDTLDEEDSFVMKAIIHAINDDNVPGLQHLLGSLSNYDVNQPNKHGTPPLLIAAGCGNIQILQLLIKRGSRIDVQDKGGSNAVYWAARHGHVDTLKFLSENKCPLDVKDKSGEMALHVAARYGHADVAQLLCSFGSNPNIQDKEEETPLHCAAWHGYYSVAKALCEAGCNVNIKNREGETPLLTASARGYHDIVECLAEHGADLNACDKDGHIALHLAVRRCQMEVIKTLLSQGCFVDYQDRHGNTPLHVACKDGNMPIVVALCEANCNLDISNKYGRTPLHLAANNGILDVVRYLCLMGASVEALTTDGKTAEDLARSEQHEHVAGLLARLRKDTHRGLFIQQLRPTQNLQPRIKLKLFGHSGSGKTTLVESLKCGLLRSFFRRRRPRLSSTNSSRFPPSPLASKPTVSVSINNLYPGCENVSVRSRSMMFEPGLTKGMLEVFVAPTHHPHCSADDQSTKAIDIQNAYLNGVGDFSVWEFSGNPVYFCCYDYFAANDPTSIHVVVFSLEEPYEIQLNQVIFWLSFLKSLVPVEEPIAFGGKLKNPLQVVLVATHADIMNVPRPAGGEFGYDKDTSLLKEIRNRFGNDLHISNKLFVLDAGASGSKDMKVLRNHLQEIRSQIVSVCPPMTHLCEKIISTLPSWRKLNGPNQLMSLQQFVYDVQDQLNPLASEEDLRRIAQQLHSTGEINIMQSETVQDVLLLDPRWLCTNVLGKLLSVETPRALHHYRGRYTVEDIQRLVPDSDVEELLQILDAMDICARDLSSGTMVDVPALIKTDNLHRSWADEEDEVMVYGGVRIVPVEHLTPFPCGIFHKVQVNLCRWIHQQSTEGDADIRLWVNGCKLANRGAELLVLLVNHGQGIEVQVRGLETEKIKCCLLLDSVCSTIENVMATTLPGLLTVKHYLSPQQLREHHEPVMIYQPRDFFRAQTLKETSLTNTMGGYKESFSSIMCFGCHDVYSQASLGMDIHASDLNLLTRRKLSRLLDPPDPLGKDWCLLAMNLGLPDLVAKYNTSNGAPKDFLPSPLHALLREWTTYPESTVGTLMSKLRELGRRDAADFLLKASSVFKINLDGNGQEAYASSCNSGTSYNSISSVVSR
Test: Kinase profiling DAPK1
Type: biochemical
Conditions: 100 micromolar inhibitor concentration; 100 is no change
Text: Any value less that 25 is considered to be highly significant inhibition.
Label yes (1) when residual kinase activity, DAPK1 >= 80; otherwise no (0).

O=C(Nc1nc2ccc(O)cc2s1)c1ccccn1 = no (0)

Check if residual kinase activity, DAPK1 >= 80 (inclusive). Item: O=C(Nc1nc2ccc(O)cc2s1)c1cccnc1 no (0)

Check if residual kinase activity, DAPK1 >= 80 (inclusive). Item: O=C(Nc1nc2cc(O)ccc2s1)c1ccccn1 no (0)

Check if residual kinase activity, DAPK1 >= 80 (inclusive). Item: CC(=O)Nc1nc2ccccc2s1 yes (1)

====

molecular target: CAMKKb (Homo sapiens, UniProt Q96RR4); assay: Kinase profiling CAMKKb; format: biochemical; conditions: 100 micromolar inhibitor concentration; 100 is no change
Sequence (Q96RR4 whole entry, species assumed): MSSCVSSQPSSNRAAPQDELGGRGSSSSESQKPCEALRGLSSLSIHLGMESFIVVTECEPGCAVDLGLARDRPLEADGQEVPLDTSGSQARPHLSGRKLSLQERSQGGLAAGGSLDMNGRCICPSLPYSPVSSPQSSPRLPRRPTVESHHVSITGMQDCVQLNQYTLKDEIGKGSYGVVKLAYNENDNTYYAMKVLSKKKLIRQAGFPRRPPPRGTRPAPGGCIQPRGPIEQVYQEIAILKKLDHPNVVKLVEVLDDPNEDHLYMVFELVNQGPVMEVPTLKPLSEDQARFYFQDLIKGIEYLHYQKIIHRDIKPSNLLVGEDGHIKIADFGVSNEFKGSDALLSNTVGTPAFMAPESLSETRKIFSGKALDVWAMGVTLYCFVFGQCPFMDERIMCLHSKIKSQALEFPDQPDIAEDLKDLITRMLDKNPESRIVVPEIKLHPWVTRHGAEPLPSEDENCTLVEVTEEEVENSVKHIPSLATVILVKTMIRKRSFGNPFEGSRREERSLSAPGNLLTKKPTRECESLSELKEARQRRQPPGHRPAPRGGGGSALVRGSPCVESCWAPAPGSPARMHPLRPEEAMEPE
ASSAY_READOUT: residual kinase activity, CAMKKb
Numbers only.

Examples from the recorded data:
COc1ccc2sc(NC(=O)c3ccccc3)nc2c1 [Compound 03-95] = 54
O=C(Nc1nc2ccc(F)cc2s1)c1ccccc1 [Compound 03-92] = 80
COC(=O)c1cccc(C(=O)Nc2nc3cc(OC)ccc3s2)c1 [Compound 03-108] = 80
O=C(Nc1nc2ccc(O)cc2s1)c1ccncc1 [Compound 08-42] = 68
COC(=O)c1cccc(C(=O)Nc2nc3ccc(F)cc3s2)c1 [Compound 03-110] = 62

# return residual kinase activity, CAMKKb for each item in the list
1. O=C(Nc1nc2ccc(O)cc2s1)c1ccccc1 [Compound 03-60]
2. N#Cc1ccc2nc(NC(=O)c3ccccc3)sc2c1 [Compound 03-106]

1. 37
2. 67

# return residual kinase activity, CAMKKb for each item in the list
1. CC(=O)Nc1nc2cc(C)ccc2s1 [Compound 03-76]
2. O=C(Nc1nc2cc(O)ccc2s1)c1ccncc1 [Compound 03-11]
3. COc1ccc2nc(NC(=O)c3ccccc3)sc2c1 [Compound 03-98]
4. O=C(Nc1nc2ccc(O)cc2s1)c1ccccn1 [Compound 03-12]
5. CC(=O)Nc1nc2ccccc2s1 [Compound 03-32]
6. O=C(Nc1nc2cc(O)ccc2s1)c1ccccn1 [Compound 03-13]
7. O=C(Nc1nc2ccc(O)cc2s1)c1cccnc1 [Compound 08-44]

[71, 88, 45, 41, 101, 69, 59]

Where these numbers come from: patent US10231954B2
